Please go through the items and note down their growth.
System: COLO 205 colon
Experiment: NCI-60 one-dose screen, 48 h (100 = growth as untreated, 0 = no growth, -100 = all killed)
Conditions: 10 µM unless noted
Description: Cells are grown in 96 well plates and exposed to the test compound for 48 hours. Compounds are tested at a single concentration, which is 10^-5 M for most compounds. The reported endpoint is percent growth (GI% or GIPRCNT), where numbers from 0 - 100% represent growth inhibition, and numbers from -100% - 0 represent cell death. For example, a value of 40 represents 60% growth inhibition. A value of 0 means no net growth occurred over the course of the experiment. […]
The panel holds about 83,000 compounds, 20% with a hit somewhere; the sample as a whole holds those more often.
Field: numeric (%). Do not append units.

Entry under review: CCc1cccc(C)c1NC(=O)c1sc2nc3c(cc2c1N)C(=O)CCC3 . Reported growth?
-7.24

Entry under review: O=C(Cc1c(F)cccc1Cl)Nc1ccc(S(=O)(=O)Nc2ncccn2)cc1 . Reported growth?
105

Entry under review: NC(N)=NC(N)=Nc1ccccc1-c1ccccc1 . Reported growth?
125

Entry under review: CCC1=C[C@@H]2CN(C1)Cc1c([nH]c3ccccc13)[C@@](C(=O)OC)(c1cc3c(cc1OC)N(C=O)[C@H]1[C@@](O)(C(=O)OC)[C@H](OC(C)=O)[C@]4(CC)[C@@H]5C[C@@H]5CN5CC[C@]31[C@@H]54)C2 . Reported growth?
-78.5

Entry under review: O=C1CCC/C=C\C[C@H]2C=CC(=O)/C2=C/C[C@H](C/C=C\CC(F)(F)F)O1 . Reported growth?
-44.4

Entry under review: O=C(/C=C/CN1CCOCC1)Nc1cc2c(Nc3cccc(Cl)c3F)ncnc2cc1OCCOC(F)F . Reported growth?
95.1

Entry under review: NS(=O)(=O)c1ccc(CN2C(=O)c3cccc4cccc(c34)C2=O)cc1 . Reported growth?
99.4

Entry under review: Cc1ccc(C2=NN(c3ccc(S(=O)(=O)NC(=O)NCc4ccccc4)cc3)C(c3ccc(N(C)C)cc3)C2)c(C)c1 (centres undefined) . Reported growth?
62.1

Entry under review: c1ccc2nc(-c3ccc4ccccc4n3)ccc2c1 . Reported growth?
106

Entry under review: COc1cc(-c2nc(-c3nc4ccccc4[nH]3)cc3c2[nH]c2ccccc23)cc(OC)c1OC . Reported growth?
26.9

Entry under review: O=C(O)c1ccc(-n2cc(CNc3ccc(C(F)(F)F)cc3)c(-c3ccccc3)n2)cc1 . Reported growth?
107

Entry under review: COc1cc(C2CC(c3c(C)[n+]([O-])c4ccccc4[n+]3[O-])=NN2)cc(OC)c1OC (centres undefined) . Reported growth?
102

Entry under review: CN(C)C1CCC(NC2=CC(=O)C=CC2=O)CC1 (centres undefined) . Reported growth?
128

Entry under review: COc1ccc(NC(=O)/N=c2\oc3c(OC)cccc3cc2-c2cc3ccccc3[nH]2)cc1 . Reported growth?
97.8

Entry under review: CCOC(=O)c1cc(/C(=N\O)c2cc(OC)c(OC)c(OC)c2)n2cc(C)cc(C)c12 . Reported growth?
11.5

Entry under review: O=S(=O)(c1ccccc1)n1ccc(-c2ccc3c(c2)CCO3)n1 . Reported growth?
96.9

Entry under review: COc1ccc(/C=C/c2nc(N3CCOCC3)c3cc(F)c(F)cc3n2)cc1OC . Reported growth?
15.6

Entry under review: COc1ccc(/C=C/c2nc(N3CCOCC3)c3nc(Cl)c(Cl)cc3n2)cc1OC . Reported growth?
105

Entry under review: COc1cc(-c2cc(/C=C3\CCCCC3=O)[nH]n2)cc(OC)c1OC . Reported growth?
108

Entry under review: Oc1ccc(N=Cc2ccccc2)cc1 . Reported growth?
113

Entry under review: COc1cccc(/C=C/c2c(C(=O)O)cccc2[N+](=O)[O-])c1OC . Reported growth?
100

Entry under review: CCOC(=O)/C=C\C(=O)NC(N)=O . Reported growth?
115

Entry under review: CC(=O)/C=C/c1cc2cc(Cl)ccc2[nH]c1=O . Reported growth?
98.8

Entry under review: CC(=O)Nc1ccc(S(=O)(=O)NC(CCC(=O)Nc2ccc(Cl)cc2)C(=O)O)cc1 (centres undefined) . Reported growth?
97.8

Entry under review: Cc1cc(NC(=O)COC(=O)c2sc3cc(F)ccc3c2Cl)no1 . Reported growth?
104

Entry under review: CC(C)(C)c1cc(-c2nc3ccc(N4CCN(CCO)CC4)cc3[nH]2)cc(C(C)(C)C)c1O . Reported growth?
-57.2

Entry under review: CCCCCCCC/C=C\CCCCCCCCOc1ccccc1CCOP(=O)(O)OCC[N+](C)(C)C . Reported growth?
58.4

Entry under review: CCCCOc1nc2c(C)cccc2cc1C1CNC(=O)c2ccccc2N1 (centres undefined) . Reported growth?
90.8

Entry under review: CC(C)(C)c1ccc(S(=O)(=O)Oc2ccc3c4c(c(=O)oc3c2)CCCCC4)cc1 . Reported growth?
37.4

Entry under review: NC(=O)c1cccc(N2Cc3ccccc3OC3=C2C(=O)c2c(O)ccc(O)c2C3=O)c1 . Reported growth?
-82.8

Entry under review: COc1cc(CCn2nnc3c(Nc4ccc(N5CCOCC5)cc4)ncnc32)cc(OC)c1 . Reported growth?
94.9

Entry under review: COc1ccc(C(=O)/C=C/c2ccc(/C=C/c3cc(OC)c(OC)c(OC)c3)cc2)cc1 . Reported growth?
68.1

Entry under review: COc1cc(CNC(=O)CCSc2nc3ccccc3c(=O)n2Cc2cc(OC)c(OC)c(OC)c2)cc(OC)c1OC . Reported growth?
25.8

Entry under review: COc1ccc([N+](=O)[O-])c(/C=C/C(=O)c2ccccn2)c1 . Reported growth?
89.1

Entry under review: Nc1c(C(=O)Nc2ccccc2)sc2nc3c(cc12)CN(Cc1ccccc1)CC3 . Reported growth?
97.8

Entry under review: O=c1[nH]c(-c2cn(-c3ccc(Cl)cc3)nn2)nc2ccccc12 . Reported growth?
99.2

Entry under review: CCn1cc(C(=O)O)c(=O)c2cc(F)c(N3CCN(S(=O)(=O)c4ccc(Cl)cc4Cl)CC3)cc21 . Reported growth?
-59.8

Entry under review: O=c1oc2cc(OS(=O)(=O)c3ccc(F)cc3)ccc2c2c1CCCCC2 . Reported growth?
24.4

Entry under review: O=S(=O)(NCCNc1cc(-c2cn(-c3ccccc3)nc2-c2ccccc2)ccn1)c1ccc(F)cc1 . Reported growth?
98.8
